Each entry below carries its recorded TGI.
Tested on: A549 NSCLC
Test: NCI tumour cell line growth inhibition, 48 h

- compound: "CC(C)c1ccc(C(c2c(O)c3ccccc3oc2=O)c2c(O)c3ccccc3oc2=O)cc1"
  TGI: "45.7 µM"
- compound: "Clc1ccc2c(c1)CC1C[N+]3=C(CCCCC3)C1=C2 (stereo unspecified)"
  TGI: "> 100 µM"
- compound: "CN(CCc1ccccn1)/[N+]([O-])=N/O (tested in a mixture with another compound)"
  TGI: "> 100 µM"
- compound: "CN(C)C1(N(C)C)Oc2c(c(=O)n(C)c(=O)n2C)C(c2ccc(F)cc2)C1(F)F (stereo unspecified)"
  TGI: "> 100 µM"
- compound: "CCCCCCCCCCCCCCCCCC(=O)NCC(COP(=O)([O-])OCC[N+](C)(C)C)OCC (stereo unspecified)"
  TGI: "33.4 µM"
- compound: "CN(C)C[C@@H]1CCn2cc(c3ccccc32)C2=C(C(=O)NC2=O)c2cn(c3ccccc23)CCO1"
  TGI: "> 10 µM"
- compound: "CC(O)(c1ccc(OCCC[N+](C)(C)C)cc1)C(C)(O)c1ccc(OCCC[N+](C)(C)C)cc1 (stereo unspecified)"
  TGI: "> 100 µM"
- compound: "COc1c(-c2ccc(F)cc2)oc2c(CC(=O)O)cccc2c1=O"
  TGI: "> 100 µM"
- compound: "O=C(O)C1Cc2[nH]c3ccccc3c2C2CCCC12 (stereo unspecified)"
  TGI: "> 100 µM"
- compound: "C/C(CC(=O)Nc1cccc([N+](=O)[O-])c1)=N/NC(N)=S"
  TGI: "> 100 µM"
- compound: "Oc1ccccc1/C=N\\Nc1ccccc1"
  TGI: "> 100 µM"
- compound: "CC1OC(OC2C(O)C(OCCc3ccc(O)c(O)c3)OC(CO)C2OC(=O)/C=C/c2ccc(O)c(O)c2)C(O)C(O)C1O (stereo unspecified)"
  TGI: "> 100 µM"
- compound: "COc1ccc(C(=O)/C=C/c2c(C(F)(F)F)nc3ccccn23)cc1OC"
  TGI: "> 100 µM"
- compound: "CCOC(=O)Cc1ccc(Nc2nc3cc(F)c(F)cc3nc2C(=O)OCC)cc1"
  TGI: "> 100 µM"
- compound: "O=C(O)c1ccccc1/C=N\\N(CCO)C1=NCCN1"
  TGI: "> 100 µM"
- compound: "CC[C@H](C)[C@H](NC(=O)[C@H]1CCCCN1C)C(=O)N(C)[C@H](C[C@@H](OC(C)=O)c1nc(C(=O)NC23C4C5C2C2C3C4C52C(=O)OC)cs1)C(C)C (stereo partly specified)"
  TGI: "> 25 µM"
- compound: "Cc1cc(N(CCC#N)CCC#N)ccc1/C=C(\\N=[N+]=[N-])C(=O)NC(=O)COc1ccccc1"
  TGI: "> 100 µM"
- compound: "CC[C@@]1(O)C(=O)OCc2c1cc1n(c2=O)Cc2cc3cccc(N)c3nc2-1"
  TGI: "> 100 µM"
- compound: "O=C(OCC1CC(C2(O)CCCCC2)C(=O)O1)c1ccccc1 (stereo unspecified)"
  TGI: "> 100 µM"
- compound: "CC(C)c1ccc(C(O)(C(=O)O)c2ccc(C(C)C)cc2)cc1"
  TGI: "> 100 µM"
- compound: "COc1ccc2c(c1)C(=O)/C(=C/c1cccc(OCC(=O)c3ccc([N+](=O)[O-])cc3)c1)CO2"
  TGI: "22.8 µM"
